Target: T1, Recombinant HMGB1 (Calmodulin Binding Protein Epitope, Cbp tagged) (UniProt P09429 1-215)
T1 construct: high-mobility group box-1 protein (HMGB1), recombinant; The reagents also list 'reduced HMGB1'; also called high-mobility group box-1
T1 sequence (looked up): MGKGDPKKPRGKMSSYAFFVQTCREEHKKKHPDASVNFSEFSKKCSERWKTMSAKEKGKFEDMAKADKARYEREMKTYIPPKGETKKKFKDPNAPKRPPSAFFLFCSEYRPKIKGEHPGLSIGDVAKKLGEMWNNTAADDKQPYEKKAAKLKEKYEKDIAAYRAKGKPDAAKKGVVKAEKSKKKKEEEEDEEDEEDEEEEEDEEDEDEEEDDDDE
Assay: SPR; inhibition assay, Biacore T200; sRAGE amine-coupled to a CM5 chip (~500 RU); HMGB1 (0.5 μM) with or without DWEYS 50 to 1.6 μM injected at 30 μL/min for 60 s, 25°C; PBS + 0.05 Tween 20
Settings: both partners purified
Quantity: IC50 (µM)
// note: answer is a bare numeric in µM

Can you look up the measured IC50 of DWEYS (the biotinylated form may have been used there; also called pentapeptide DWEYS; DNA mimetope; source: synthetic peptide (GenScript)) [DWEYS peptide] for me? 34.7
